measured_target: human RIP1 kinase domain (2-375) (Homo sapiens (Human))
Sequence (Q13546 2-375): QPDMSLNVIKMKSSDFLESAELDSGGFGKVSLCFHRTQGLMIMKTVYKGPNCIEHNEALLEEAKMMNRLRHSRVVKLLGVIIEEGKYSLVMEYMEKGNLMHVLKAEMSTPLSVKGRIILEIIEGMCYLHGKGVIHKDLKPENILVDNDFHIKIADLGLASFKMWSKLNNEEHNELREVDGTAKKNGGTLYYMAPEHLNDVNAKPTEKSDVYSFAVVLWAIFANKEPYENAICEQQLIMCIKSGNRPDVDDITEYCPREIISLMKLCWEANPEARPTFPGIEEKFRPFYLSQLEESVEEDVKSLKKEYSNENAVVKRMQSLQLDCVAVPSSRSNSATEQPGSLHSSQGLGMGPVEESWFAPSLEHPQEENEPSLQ
assay_info: biochemical
Type: biochemical
condition_description: human RIP1 kinase domain (2-375), 50 uM ATP, 2 hours incubation, Transcreener ADP assay; read-out: RIP1 Ki
pKi: −log10 of the molar value.
quantity_kind: pKi

Solved cases (3 shown):
CN1C(=O)C(NC(=O)c2cn(Cc3ccccc3)nn2)CCn2nc(-c3ccccc3)cc21 (stereo not drawn) [Example 216] ... 7.01
CN1C(=O)[C@@H](NC(=O)c2ncn(Cc3ccc(F)cc3F)n2)CCn2nc(C3CC3)cc21 [Example 224] ... 7.66
CN1C(=O)[C@@H](NC(=O)c2ncn(Cc3ccccc3)n2)CCCn2nccc21 [Example 155] ... 7.42

A = CN1C(=O)[C@@H](NC(=O)c2nnn3ccc(C(F)(F)F)cc23)COc2ccccc21 [Example 191]
B = CN1C(=O)[C@@H](NC(=O)c2nnn3c2CC(C(F)(F)F)CC3)COc2ccccc21 (stereo partly drawn) [Example 192]
C = CN1C(=O)[C@@H](NC(=O)c2n[nH]c3c2CC(C)(c2ccccc2)OC3)COc2ccccc21 (stereo partly drawn) [Example 212]
D = CN1C(=O)[C@@H](NC(=O)c2nc3n(n2)C(c2ccccc2)COC3)COc2ccccc21 (stereo partly drawn) [Example 123]
*Q* Sort these molecules on pKi so the largest reading comes first. Please write the labels in the order that was asked for.
*A* A, B, D, C

1 = CCn1nc(C(=O)N[C@H]2COc3ccccc3N(C)C2=O)c2c1CC[C@H](C(F)(F)F)C2 (single isomer, unassigned) [Example 185]
2 = Cc1cc2n(n1)CC[C@H](NC(=O)c1ncn(Cc3ccc(F)cc3)n1)C(=O)N2C [Example 222]
3 = CN1C(=O)[C@@H](NC(=O)c2ncn(Cc3ccccc3)n2)CCn2nc(C3CC3)cc21 [Example 171]
4 = CN1C(=O)[C@@H](NC(=O)c2n[nH]c3c2CC2(CC3)CC2)COc2ccccc21 [Example 174]
5 = CC(C)n1ncc2c1OC[C@H](NC(=O)c1cn(Cc3ccc(F)c(F)c3)cn1)C(=O)N2C [Example 180]
*Q* Give the ascending ranking of the items by reported pKi. Please respond with the labels ordered as the question requires.
*A* 5, 1, 4, 2, 3
